Target: PI3K α (Homo sapiens (Human), UniProt P42336)
Sequence (P42336 whole entry): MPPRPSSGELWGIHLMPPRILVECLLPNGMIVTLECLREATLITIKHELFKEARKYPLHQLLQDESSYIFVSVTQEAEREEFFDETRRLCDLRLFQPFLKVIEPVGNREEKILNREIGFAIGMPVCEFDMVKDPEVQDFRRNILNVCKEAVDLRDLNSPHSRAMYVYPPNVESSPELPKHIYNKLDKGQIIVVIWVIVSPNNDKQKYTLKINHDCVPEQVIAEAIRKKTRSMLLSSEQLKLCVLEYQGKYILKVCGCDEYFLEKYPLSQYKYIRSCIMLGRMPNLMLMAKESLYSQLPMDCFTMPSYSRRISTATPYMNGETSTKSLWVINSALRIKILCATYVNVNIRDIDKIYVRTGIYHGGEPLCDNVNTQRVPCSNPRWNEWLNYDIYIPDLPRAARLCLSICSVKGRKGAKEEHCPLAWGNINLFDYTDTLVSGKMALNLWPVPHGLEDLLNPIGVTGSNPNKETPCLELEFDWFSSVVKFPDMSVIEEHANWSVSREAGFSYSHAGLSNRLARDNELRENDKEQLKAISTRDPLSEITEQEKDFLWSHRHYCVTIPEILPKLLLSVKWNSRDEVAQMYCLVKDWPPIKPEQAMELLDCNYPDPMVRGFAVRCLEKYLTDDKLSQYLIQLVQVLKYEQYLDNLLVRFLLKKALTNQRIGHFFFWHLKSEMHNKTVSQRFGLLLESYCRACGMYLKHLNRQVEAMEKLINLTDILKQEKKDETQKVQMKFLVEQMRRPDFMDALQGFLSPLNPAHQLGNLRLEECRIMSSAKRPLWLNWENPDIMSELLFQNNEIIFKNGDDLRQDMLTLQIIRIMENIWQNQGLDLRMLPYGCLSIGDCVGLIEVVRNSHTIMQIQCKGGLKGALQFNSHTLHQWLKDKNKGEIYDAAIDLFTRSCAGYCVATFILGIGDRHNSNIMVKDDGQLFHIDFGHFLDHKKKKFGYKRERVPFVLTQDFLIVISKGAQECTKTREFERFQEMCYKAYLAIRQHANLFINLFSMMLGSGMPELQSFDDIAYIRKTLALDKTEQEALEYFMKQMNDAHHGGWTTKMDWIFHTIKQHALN
Sequence (P27986 whole entry partner): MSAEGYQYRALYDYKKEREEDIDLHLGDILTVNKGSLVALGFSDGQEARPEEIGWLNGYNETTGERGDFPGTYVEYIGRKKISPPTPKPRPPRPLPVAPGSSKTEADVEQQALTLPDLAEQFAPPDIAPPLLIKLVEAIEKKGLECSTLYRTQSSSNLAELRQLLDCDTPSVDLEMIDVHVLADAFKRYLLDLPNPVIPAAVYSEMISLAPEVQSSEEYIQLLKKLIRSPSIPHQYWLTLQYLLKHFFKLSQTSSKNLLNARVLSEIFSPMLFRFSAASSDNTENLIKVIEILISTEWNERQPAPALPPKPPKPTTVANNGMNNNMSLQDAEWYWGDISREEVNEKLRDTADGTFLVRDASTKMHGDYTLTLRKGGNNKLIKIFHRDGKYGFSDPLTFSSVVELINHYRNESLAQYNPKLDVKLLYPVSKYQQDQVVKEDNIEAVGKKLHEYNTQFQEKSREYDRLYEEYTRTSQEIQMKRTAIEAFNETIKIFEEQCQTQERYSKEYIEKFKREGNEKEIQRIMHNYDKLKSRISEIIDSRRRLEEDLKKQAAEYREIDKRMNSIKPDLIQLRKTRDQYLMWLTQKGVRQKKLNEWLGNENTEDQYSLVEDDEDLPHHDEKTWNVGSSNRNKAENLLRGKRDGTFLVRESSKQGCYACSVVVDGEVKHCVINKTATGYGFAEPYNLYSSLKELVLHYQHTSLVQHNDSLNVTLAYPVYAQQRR
pIC50: −log10 of the molar value.
Below, each of the compounds is paired with its reported pIC50 value.
assay_readout: pIC50

mol_smiles: C[C@H](NC(=O)c1c(N)nn2cccnc12)c1cc2cccc(C#CCO)c2c(=O)n1-c1ccccc1
measured_result: 5.00 to 5.30

mol_smiles: C[C@H](NC(=O)c1c(N)nn2cccnc12)c1cc2cccc(CC(=O)c3cnn(C)c3)c2c(=O)n1-c1ccccc1
measured_result: 5.00 to 5.30

mol_smiles: Cc1ccccc1-n1c([C@H](C)NC(=O)c2c(N)nn3cccnc23)cc2cccc(C#Cc3cnn(C)c3)c2c1=O
measured_result: 5.00 to 5.30

mol_smiles: C[C@H](NC(=O)c1c(N)nn2cccnc12)c1cc2cccc(C#CC3CCN(S(C)(=O)=O)CC3)c2c(=O)n1-c1ccccc1
measured_result: 5.00 to 5.30

mol_smiles: C[C@H](NC(=O)c1c(N)nn2cccnc12)c1cc2cccc(C#Cc3ccc(=O)n(C)c3)c2c(=O)n1-c1ccccc1
measured_result: 5.00 to 5.30

mol_smiles: C[C@H](NC(=O)c1c(N)nn2cccnc12)c1cc2cccc(C#CCN3CCCC3=O)c2c(=O)n1-c1ccccc1
measured_result: 5.30 to 6.00

mol_smiles: Cc1ccc(C#Cc2cccc3cc([C@H](C)NC(=O)c4c(N)nn5cccnc45)n(-c4ccccc4)c(=O)c23)cn1
measured_result: 5.00 to 5.30

mol_smiles: C[C@H](NC(=O)c1c(N)nn2cccnc12)c1cc2cccc(C#Cc3cscn3)c2c(=O)n1-c1ccccc1
measured_result: 5.30 to 6.00

mol_smiles: C[C@H](NC(=O)c1c(N)nn2cccnc12)c1cc2cccc(C#Cc3cnn(C)c3)c2c(=O)n1CCS(=O)(=O)N(C)C
measured_result: 5.30 to 6.00

mol_smiles: C[C@H](NC(=O)c1c(N)nn2cccnc12)c1cc2cccc(C#CC(C)(C)O)c2c(=O)n1-c1ccccc1
measured_result: 5.00 to 5.30

mol_smiles: C#Cc1cccc2nc([C@H](C)NC(=O)c3nccnc3N)n(-c3ccc(F)cc3)c(=O)c12
measured_result: 5.00 to 5.30

mol_smiles: C[C@H](NC(=O)c1c(N)nn2cccnc12)c1cc2cccc(C#Cc3ccccn3)c2c(=O)n1-c1ccccc1
measured_result: 5.00 to 5.30

mol_smiles: C#Cc1cccc2nc([C@H](C)NC(=O)c3c(N)nn4cccnc34)n(C)c(=O)c12
measured_result: 5.30 to 6.00

mol_smiles: Cc1nn(C)cc1C#Cc1cccc2cc([C@H](C)NC(=O)c3c(N)nn4cccnc34)n(-c3ccccc3)c(=O)c12
measured_result: 5.00 to 5.30

* * *

Target: PI3K-δ in RAJI cells (Homo sapiens (Human))
Sequence (O00329 whole entry): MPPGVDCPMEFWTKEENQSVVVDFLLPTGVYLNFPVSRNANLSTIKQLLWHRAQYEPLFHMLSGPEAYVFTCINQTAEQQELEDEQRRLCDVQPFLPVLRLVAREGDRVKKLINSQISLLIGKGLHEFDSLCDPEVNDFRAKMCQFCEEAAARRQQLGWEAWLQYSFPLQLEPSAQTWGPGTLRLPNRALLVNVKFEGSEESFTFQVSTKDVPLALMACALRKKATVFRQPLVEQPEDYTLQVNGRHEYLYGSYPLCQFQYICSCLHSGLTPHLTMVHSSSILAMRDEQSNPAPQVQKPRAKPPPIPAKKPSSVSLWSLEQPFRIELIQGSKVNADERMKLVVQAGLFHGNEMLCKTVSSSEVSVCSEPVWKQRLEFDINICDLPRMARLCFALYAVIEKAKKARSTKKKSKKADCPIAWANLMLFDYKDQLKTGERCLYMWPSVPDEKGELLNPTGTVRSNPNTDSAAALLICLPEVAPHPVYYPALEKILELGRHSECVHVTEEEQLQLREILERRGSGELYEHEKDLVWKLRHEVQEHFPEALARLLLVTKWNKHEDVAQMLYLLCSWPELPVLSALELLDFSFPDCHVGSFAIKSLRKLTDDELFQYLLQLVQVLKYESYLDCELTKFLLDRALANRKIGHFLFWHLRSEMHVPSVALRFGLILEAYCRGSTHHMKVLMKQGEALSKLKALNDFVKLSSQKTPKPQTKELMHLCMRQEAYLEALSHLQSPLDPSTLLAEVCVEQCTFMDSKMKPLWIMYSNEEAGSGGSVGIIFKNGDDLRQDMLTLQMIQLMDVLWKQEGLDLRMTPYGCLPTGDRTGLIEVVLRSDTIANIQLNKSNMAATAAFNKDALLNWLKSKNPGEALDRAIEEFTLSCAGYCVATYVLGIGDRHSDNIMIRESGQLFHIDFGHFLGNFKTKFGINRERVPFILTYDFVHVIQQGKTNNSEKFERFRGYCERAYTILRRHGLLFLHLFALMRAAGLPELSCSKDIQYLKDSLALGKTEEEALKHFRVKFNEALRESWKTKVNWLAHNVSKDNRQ
Sequence (P27986 whole entry partner): as the sequence (P27986 whole entry partner) above
Assay: RAJI p110 δ assay (PI3K-δ selective cellular assay, phospho-AKT)
Format: cell-based
Settings: phospho-AKT; read-out: RAJI p110 δ assay IC50
Below, each of the molecules is paired with its reported IC50 value.

molecule: C[C@H](NC(=O)c1c(N)nn2cccnc12)c1cc2cccc(C#CCN3CCN(C)CC3)c2c(=O)n1-c1ccccc1 [Compound 56]
IC50: 100 to 500 nM
//
molecule: C/C=C/c1cccc2cc([C@H](C)NC(=O)c3c(N)nn4cccnc34)n(-c3ccccc3)c(=O)c12 [Compound 70]
IC50: 1 to 100 nM
//
molecule: CC#Cc1cccc2nc([C@H](C)NC(=O)c3c(N)nn4cccnc34)n(-c3ccccc3)c(=O)c12 [Compound 1]
IC50: 1 to 100 nM
//
molecule: COC(C)C#Cc1cccc2cc([C@H](C)NC(=O)c3c(N)nn4cccnc34)n(-c3ccccc3)c(=O)c12 (some centres unmarked) [Compound 22]
IC50: 1000 to 10000 nM
//
molecule: C[C@H](NC(=O)c1c(N)nn2cccnc12)c1cc2cccc(C#CC3(O)CN4CCC3CC4)c2c(=O)n1-c1ccccc1 (some centres unmarked) [Compound 62]
IC50: 1000 to 10000 nM
//
molecule: C[C@H](NC(=O)c1c(N)nn2cccnc12)c1cc2cccc(C#Cc3cscn3)c2c(=O)n1-c1ccccc1 [Compound 54]
IC50: 100 to 500 nM
//
molecule: C[C@H](NC(=O)c1c(N)nn2cccnc12)c1cc2cccc(C#CC=O)c2c(=O)n1-c1ccccc1 [Compound 36]
IC50: 100 to 500 nM
//
molecule: C[C@H](NC(=O)c1c(N)nn2cccnc12)c1cc2cccc(C#CC3CCOC3)c2c(=O)n1-c1ccccc1 (some centres unmarked) [Compound 84]
IC50: 100 to 500 nM
//
molecule: C[C@H](NC(=O)c1c(N)nn2cccnc12)c1cc2cccc(C#CC(C)(C)O)c2c(=O)n1-c1ccccc1 [Compound 11]
IC50: 1000 to 10000 nM
//
molecule: C#Cc1cccc2nc([C@H](C)NC(=O)c3nccnc3N)n(-c3ccc(F)cc3)c(=O)c12 [Compound 49]
IC50: 1 to 100 nM
//
molecule: Cc1nc(C#Cc2cccc3nc([C@H](C)NC(=O)c4c(N)nn5cccnc45)n(-c4ccccc4)c(=O)c23)cs1 [Compound 63]
IC50: 500 to 1000 nM
//
molecule: C[C@H](NC(=O)c1c(N)nn2cccnc12)c1cc2cccc(C#Cc3cnn(C)c3)c2c(=O)n1C1CC1 [Compound 25]
IC50: 100 to 500 nM
//
molecule: C[C@H](NC(=O)c1c(N)nn2cccnc12)c1cc2cccc(C#Cc3cncs3)c2c(=O)n1-c1ccccc1 [Compound 41]
IC50: 100 to 500 nM
//
molecule: C[C@H](NC(=O)c1c(N)nn2cccnc12)c1cc2cccc(C#Cc3ccn(C)n3)c2c(=O)n1-c1ccccc1 [Compound 30]
IC50: 100 to 500 nM
//
molecule: C[C@H](NC(=O)c1c(N)nn2cccnc12)c1cc2cccc(C#CC3CCCC3)c2c(=O)n1-c1ccccc1 [Compound 64]
IC50: 1000 to 10000 nM
//
molecule: C[C@H](NC(=O)c1c(N)nn2cccnc12)c1cc2cccc(C#Cc3cn[nH]c3)c2c(=O)n1-c1ccccc1 [Compound 80]
IC50: 100 to 500 nM
//
molecule: Cc1ncc(C#Cc2cccc3cc([C@H](C)NC(=O)c4c(N)nn5cccnc45)n(-c4ccccc4)c(=O)c23)n1C [Compound 38]
IC50: 500 to 1000 nM
//
molecule: C[C@H](NC(=O)c1c(N)nn2cccnc12)c1cc2cccc(C#Cc3cncn3C)c2c(=O)n1C1CC1 [Compound 23]
IC50: 100 to 500 nM
//
molecule: C[C@H](NC(=O)c1c(N)nn2cccnc12)c1cc2cccc(C#Cc3ccc(=O)n(C)c3)c2c(=O)n1-c1ccccc1 [Compound 20]
IC50: 100 to 500 nM
//
molecule: CCOC(C#Cc1cccc2cc([C@H](C)NC(=O)c3c(N)nn4cccnc34)n(-c3ccccc3)c(=O)c12)OCC [Compound 34]
IC50: 500 to 1000 nM
//
molecule: C[C@H](NC(=O)c1c(N)nn2cccnc12)c1cc2cccc(C#C[C@@H](C)O)c2c(=O)n1-c1ccccc1 [Compound 15]
IC50: 100 to 500 nM
//
molecule: COc1cnc(C(=O)N[C@@H](C)c2cc3cccc(C#Cc4cnn(C)c4)c3c(=O)n2-c2ccccc2)c(N)n1 [Compound 71]
IC50: 1000 to 10000 nM
//
molecule: C[C@H](NC(=O)c1c(N)nn2cccnc12)c1cc2cccc(NC(=O)c3cnn(C)c3)c2c(=O)n1-c1ccccc1 [Compound 90]
IC50: 1000 to 10000 nM

* * *

Target: PI3K γ (Homo sapiens (Human), UniProt P48736)
Sequence (P48736 whole entry): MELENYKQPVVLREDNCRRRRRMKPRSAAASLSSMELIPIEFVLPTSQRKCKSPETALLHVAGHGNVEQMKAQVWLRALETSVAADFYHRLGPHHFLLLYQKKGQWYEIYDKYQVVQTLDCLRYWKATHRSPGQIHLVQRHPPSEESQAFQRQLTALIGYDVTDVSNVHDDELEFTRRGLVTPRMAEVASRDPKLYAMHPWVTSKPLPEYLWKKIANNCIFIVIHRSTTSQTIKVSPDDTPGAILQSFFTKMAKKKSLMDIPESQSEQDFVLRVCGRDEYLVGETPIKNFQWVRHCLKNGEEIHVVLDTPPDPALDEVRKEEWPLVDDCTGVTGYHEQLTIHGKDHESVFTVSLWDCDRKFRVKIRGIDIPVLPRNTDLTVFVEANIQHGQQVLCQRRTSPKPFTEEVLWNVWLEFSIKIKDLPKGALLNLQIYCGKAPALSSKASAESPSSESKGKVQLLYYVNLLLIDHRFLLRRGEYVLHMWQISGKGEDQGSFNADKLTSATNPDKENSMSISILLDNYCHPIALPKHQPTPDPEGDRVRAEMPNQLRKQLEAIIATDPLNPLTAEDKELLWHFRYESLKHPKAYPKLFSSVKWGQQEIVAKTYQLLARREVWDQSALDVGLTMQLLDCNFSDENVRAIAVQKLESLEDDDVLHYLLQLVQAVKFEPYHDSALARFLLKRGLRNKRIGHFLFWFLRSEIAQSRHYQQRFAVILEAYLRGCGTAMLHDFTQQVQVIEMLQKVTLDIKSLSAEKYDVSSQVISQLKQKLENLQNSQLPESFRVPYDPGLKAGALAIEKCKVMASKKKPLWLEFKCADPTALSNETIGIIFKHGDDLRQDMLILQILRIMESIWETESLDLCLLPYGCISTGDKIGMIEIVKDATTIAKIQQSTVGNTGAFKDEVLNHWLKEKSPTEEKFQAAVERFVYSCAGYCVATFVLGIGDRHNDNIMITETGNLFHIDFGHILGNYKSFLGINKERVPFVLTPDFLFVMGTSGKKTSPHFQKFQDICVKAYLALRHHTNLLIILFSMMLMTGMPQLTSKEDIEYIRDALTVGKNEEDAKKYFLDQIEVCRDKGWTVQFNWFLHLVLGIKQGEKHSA
Assay: PI3-Kinase Promega ADP-Glo Max assay
Assay type: biochemical

mol_smiles: Cc1nc(C#Cc2cccc3nc([C@H](C)NC(=O)c4c(N)nn5cccnc45)n(-c4ccccc4)c(=O)c23)cs1
PI3K δ/PI3K γ IC50 (selectivity): Y (Y = 50 to <850)

mol_smiles: Cc1csc(C#Cc2cccc3cc([C@H](C)NC(=O)c4c(N)nn5cccnc45)n(-c4ccccc4)c(=O)c23)n1
PI3K δ/PI3K γ IC50 (selectivity): X (X = 10 to <50)

mol_smiles: C[C@H](NC(=O)c1c(N)nn2cccnc12)c1cc2cccc(C#Cc3ccnn3C)c2c(=O)n1-c1ccccc1
PI3K δ/PI3K γ IC50 (selectivity): X (X = 10 to <50)

mol_smiles: C[C@H](NC(=O)c1cnn2cccnc12)c1cc2cccc(C#Cc3cnn(C)c3)c2c(=O)n1-c1ccccc1
PI3K δ/PI3K γ IC50 (selectivity): X (X = 10 to <50)

mol_smiles: C[C@H](NC(=O)c1c(N)nn2cccnc12)c1cc2cccc(C#Cc3cncs3)c2c(=O)n1-c1ccccc1
PI3K δ/PI3K γ IC50 (selectivity): Y (Y = 50 to <850)

mol_smiles: C#Cc1cccc2nc([C@H](C)NC(=O)c3c(N)nn4cccnc34)n(-c3ccc(F)cc3)c(=O)c12
PI3K δ/PI3K γ IC50 (selectivity): Y (Y = 50 to <850)

mol_smiles: CNS(=O)(=O)CCn1c([C@H](C)NC(=O)c2c(N)nn3cccnc23)cc2cccc(C#Cc3cnn(C)c3)c2c1=O
PI3K δ/PI3K γ IC50 (selectivity): Y (Y = 50 to <850)

mol_smiles: C#Cc1cccc2nc([C@H](C)NC(=O)c3c(N)nn4cccnc34)n(-c3ccccc3)c(=O)c12
PI3K δ/PI3K γ IC50 (selectivity): Y (Y = 50 to <850)

mol_smiles: C[C@H](NC(=O)c1nccnc1N)c1cc2cccc(C#Cc3cnn(C)c3)c2c(=O)n1-c1ccccc1
PI3K δ/PI3K γ IC50 (selectivity): X (X = 10 to <50)

mol_smiles: C[C@H](NC(=O)c1c(N)nn2cccnc12)c1cc2cccc(C#CC(C)(C)N)c2c(=O)n1-c1ccccc1
PI3K δ/PI3K γ IC50 (selectivity): X (X = 10 to <50)

mol_smiles: C[C@H](NC(=O)c1c(N)nn2cccnc12)c1cc2cccc(C#C[C@@H](C)O)c2c(=O)n1-c1ccccc1
PI3K δ/PI3K γ IC50 (selectivity): X (X = 10 to <50)

mol_smiles: COCC#Cc1cccc2cc([C@H](C)NC(=O)c3c(N)nn4cccnc34)n(-c3ccccc3)c(=O)c12
PI3K δ/PI3K γ IC50 (selectivity): X (X = 10 to <50)

mol_smiles: Cc1ncc(C#Cc2cccc3cc([C@H](C)NC(=O)c4c(N)nn5cccnc45)n(-c4ccccc4)c(=O)c23)n1C
PI3K δ/PI3K γ IC50 (selectivity): Y (Y = 50 to <850)
